Just for reference, patent US20160297763A1 is where these values come from.

Counter-ions that a name gives are not always drawn.
measure: melting point

Before answering, review these 5 worked examples.
{"columns": ["molecule", "melting point"],
 "data": [
  ["CN(C)CCNC(=O)c1cccc(-c2ccnc(C(=O)N(O)Cc3ccccc3)c2)c1", "65 to 70 °C"],
  ["O=C(c1ccc(-c2ccccc2)cn1)N(O)Cc1ccccc1", "145 to 150 °C"],
  ["Cc1c(-c2ccnc(Cl)c2F)sc2nc(N)[nH]c(=O)c12", "330 to 350 °C"],
  ["CN(O)C(=O)c1cc2ccccc2cn1", "110 to 115 °C"],
  ["CC(c1ccccc1)c1cc2c(=O)[nH]c(N)nc2s1 (stereo not drawn)", "260 to 270 °C"]
]}

Per the record, `Cl.O=C(NO)c1cc(NS(=O)(=O)Cc2cccc(C(F)(F)F)c2)ccn1` has melting point of 201 to 204 °C

Per the record, `O=C(c1cc(N2CCOCC2)ccn1)N(O)Cc1ccccc1` has melting point of 105 to 110 °C

Per the record, CCONC(=O)c1cc(N)ccn1.Cl (hydrate or solvate) has melting point of 114 to 120 °C

Per the record, `Cc1c(-c2ccccc2)sc2nc(NCCCO)[nH]c(=O)c12` has melting point of 227 to 229 °C

Per the record, `Cc1c(C2=CCNCC2)sc2nc(N)[nH]c(=O)c12` has melting point of 290 to 310 °C

Per the record, `O=C(NO)c1ccc(-c2ccccc2)cn1` has melting point of 175 to 180 °C

Per the record, `Cc1c(Cc2ccccc2)sc2nc(N)[nH]c(=O)c12` has melting point of 292 to 294 °C

Per the record, `Cc1c(-c2cc(C(F)(F)F)cc(C(F)(F)F)c2)sc2nc(N)[nH]c(=O)c12` has melting point of 344 to 347 °C

Per the record, `Cl.O=C(NO)c1cc(NS(=O)(=O)Cc2cccc(Cl)c2)ccn1` has melting point of 198 to 204 °C

Per the record, O=C(c1cc(C2=CCNCC2)ccn1)N(O)Cc1ccccc1 (as salt: hydrochloride) has melting point of 140 to 150 °C

Per the record, `O=C(c1cc(N2CCC3(CC2)OCCO3)ccn1)N(O)Cc1ccccc1` has melting point of 98 to 102 °C

----------
Measured melting point values are reported for all entries that follow.

Before answering, review these 4 worked examples.
{"columns": ["molecule", "melting point"],
 "data": [
  ["O=C(NOCc1ccccc1)c1cc(N2CCCCC2)ccn1", "135 to 140 °C"],
  ["Cc1c(-c2ccccc2)sc2nc(NCCNC(=O)CCCN3CCN(C)CC3)[nH]c(=O)c12", "192 to 196 °C"],
  ["Cl.O=C(NO)c1cc(NS(=O)(=O)Cc2cccc3cccnc23)ccn1", "220 to 228 °C"],
  ["O=C(c1cc(-c2ccccc2)ccn1)N(O)Cc1ccc(F)cc1", "135 to 140 °C"]
]}

Let us examine a further case.
Per the record, `O=C(c1ccc(N2CCCC2)cn1)N(Cc1ccccc1)OCc1ccccc1` has melting point of 95 to 100 °C

----------
Measured melting point values are reported for all entries that follow.

Before answering, review these 6 worked examples.
{"columns": ["compound", "melting point"],
 "data": [
  ["O=C(c1ccc(N2CCCC2)cn1)N(O)Cc1ccccc1", "115 to 120 °C"],
  ["O=C(Nc1ccnc(C(=O)NO)c1)c1ccccc1", "175 to 184 °C"],
  ["CC(C)c1cccc(-c2ccc(C(=O)N(O)CCc3ccccc3)nc2)c1", "110 to 115 °C"],
  ["O=C(c1cc(N2CCCC(F)(F)C2)ccn1)N(O)Cc1ccccc1", "140 to 145 °C"],
  ["CN1CC=C(c2ccnc(C(=O)N(O)Cc3ccccc3)c2)CC1", "135 to 155 °C"],
  ["Cl.O=C(NO)c1cc(NS(=O)(=O)Cc2cccc(F)c2)ccn1", "195 to 200 °C"]
]}

Per the record, `Nc1nc2sc(-c3ccccc3)c(Cl)c2c(=O)[nH]1` has melting point of > 350 °C

Per the record, `O=C(c1cc(NS(=O)(=O)Cc2ccccc2)ccn1)N(O)Cc1ccccc1` has melting point of 190 to 195 °C

Per the record, `Cc1cc(-c2sc3nc(N)[nH]c(=O)c3c2C)ccc1Cl` has melting point of 330 to 350 °C

----------
measure: melting point

Before answering, review these 8 worked examples.
{"columns": ["molecule", "melting point"],
 "data": [
  ["O=C(c1cc(NS(=O)(=O)c2ccccc2)ccn1)N(O)Cc1ccccc1", "175 to 180 °C"],
  ["O=C(c1cc(N2CCC(N3CCCC3)CC2)ccn1)N(O)Cc1ccccc1", "135 to 140 °C"],
  ["O=C(c1cc(-c2ccccc2)ccn1)N(O)Cc1ccccc1", "160 to 165 °C"],
  ["CCONC(=O)c1cc(NCC2CCN(Cc3ccccc3)CC2)ccn1.Cl.Cl (hydrate or solvate)", "125 to 130 °C"],
  ["O=C(NOCc1ccccc1)c1ccc(N2CCCC2)cn1", "165 to 170 °C"],
  ["Cc1c(-c2ccc(Cl)c(O)c2)sc2nc(N)[nH]c(=O)c12", "> 350 °C"],
  ["Cc1c(-c2c(F)ccc(Cl)c2F)sc2nc(N)[nH]c(=O)c12", "330 to 350 °C"],
  ["Cl.O=C(c1cc(NS(=O)(=O)Cc2ccc(F)cc2)ccn1)N(O)Cc1ccccc1", "178 to 183 °C"]
]}

Let us examine a further case.
Per the record, `Cl.O=C(NO)c1cc(NS(=O)(=O)Cc2ccc(Cl)cc2)ccn1` has melting point of 210 to 230 °C

----------
measure: melting point

Before answering, review these 5 worked examples.
{"columns": ["molecule smiles", "melting point"],
 "data": [
  ["Cc1c(-c2cccc(C#N)c2F)sc2nc(N)[nH]c(=O)c12", "350 to 370 °C"],
  ["Cc1c(-c2ccccc2)sc2nc(NCCN3CCOCC3)[nH]c(=O)c12", "240 to 246 °C"],
  ["Cc1c(-c2cc(C#N)ccc2F)sc2nc(N)[nH]c(=O)c12", "332 to 336 °C"],
  ["C[C@@H]1CN(c2ccnc(C(=O)N(O)Cc3ccccc3)c2)C[C@H](C)O1", "180 to 185 °C"],
  ["Cc1c(-c2ccccc2)sc2nc(Nc3ccccc3)[nH]c(=O)c12", "270 to 290 °C"]
]}

Per the record, `CCON(C)C(=O)c1ccc(-c2ccccc2)cn1` has melting point of 70 to 75 °C
